Assay comment: self-splicing fitness, log relative to wild type (ln ratio); higher = more splicing; Tetrahymena group I intron in knt gene, E. coli kanamycin selection, DiMSum; sequences stand for … in CUCUCU…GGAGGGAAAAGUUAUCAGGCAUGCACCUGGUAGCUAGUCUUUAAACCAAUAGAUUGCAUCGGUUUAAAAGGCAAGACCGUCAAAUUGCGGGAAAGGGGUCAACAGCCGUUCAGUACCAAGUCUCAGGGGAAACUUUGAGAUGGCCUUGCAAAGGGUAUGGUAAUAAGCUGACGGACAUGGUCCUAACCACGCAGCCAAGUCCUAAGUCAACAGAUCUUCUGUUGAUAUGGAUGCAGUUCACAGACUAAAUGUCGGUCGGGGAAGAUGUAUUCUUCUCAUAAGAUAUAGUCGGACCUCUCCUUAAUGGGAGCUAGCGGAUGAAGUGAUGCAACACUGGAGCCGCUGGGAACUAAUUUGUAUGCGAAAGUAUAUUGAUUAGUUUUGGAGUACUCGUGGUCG;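 further: selection with 25 µg/mL kanamycin versus none on LB agar overnight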
Condition parameters: 37 °C
Property name: self-splicing fitness (ln)

record_sequence=AUCAAGCAAUAUUACGUAGC measured_number=-2.1
record_sequence=GCAAAGCAAUAUUACGUGCU measured_number=-2.73
record_sequence=CUUUAGCAAUAUUACGCGCC measured_number=-2.39
record_sequence=CGGAAGCAAUAUUACGUGCA measured_number=-0.628
record_sequence=CUAUAGCAAUAUUACGCCAG measured_number=-0.622
record_sequence=UCGUAGCAAUAUUACGGAAU measured_number=-1.55
record_sequence=UUAGAGCAAUAUUACGUCAG measured_number=-0.83
record_sequence=AGGAAGCAAUAUUACGGUUU measured_number=-0.557
record_sequence=GAGCAGCAAUAUUACGAGUA measured_number=-1.92
record_sequence=AUUCAGCAAUAUUACGGGAU measured_number=-2.32
record_sequence=ACCGAGCAAUAUUACGCAAU measured_number=-2.36
record_sequence=ACCGAGCAAUAUUACGACGG measured_number=-0.893
record_sequence=AUAUAGCAAUAUUACGCGCA measured_number=-0.724
record_sequence=CAAGAGCAAUAUUACGGGCG measured_number=-0.188
record_sequence=CCCCAGCAAUAUUACGCUAU measured_number=-1.9
record_sequence=CCGCAGCAAUAUUACGGUAA measured_number=-1.99
